Assay: in vitro
Conditions: hamster, cho cells
property: viability at 2000 µM

# return recorded viability at 2000 µM for entry CCCC(=O)[O-].[Na+] [butyrate, sodium butyrate]
90 to 95%
